# Assay Details: Plasma pharmacokinetics of 5-FU in rats after whole pelvic irradiation
# Type: in vivo, Sprague-Dawley rats
# Experimental Context: Sprague-Dawley, rat, iv, 100 mg/kg, 5-FU 100 mg/kg i.v., whole pelvic irradiation 2 Gy, read-out: Vss
Property Name: Vd (L/kg)

O=c1[nH]cc(F)c(=O)[nH]1 [5-FU, 5-fluorouracil] = 0.67

* * *

# Assay Details: Plasma pharmacokinetics of 5-FU in rats after whole pelvic irradiation
# Type: in vivo, Sprague-Dawley rats
# Experimental Context: Sprague-Dawley, rat, iv, 100 mg/kg, 5-FU 100 mg/kg i.v., whole pelvic irradiation 0.5 Gy
Property Name: MRT (min)

O=c1[nH]cc(F)c(=O)[nH]1 [5-FU, 5-fluorouracil] = 30.9

* * *

# Assay Details: Plasma pharmacokinetics of 5-FU in rats with or without MMP-8 inhibitor before whole pelvic irradiation 2 Gy
# Format: in vivo, Sprague-Dawley rats
# Experimental Context: Sprague-Dawley, rat, plasma, iv, 100 mg/kg, 5-FU 100 mg/kg i.v., whole pelvic irradiation 2 Gy with solvent
Property Name: clearance (mL/min/kg)

O=c1[nH]cc(F)c(=O)[nH]1 = 30.3

* * *

# Assay Details: Plasma pharmacokinetics of 5-FU in rats with or without MMP-8 inhibitor before whole pelvic irradiation 2 Gy
# Type: in vivo, Sprague-Dawley rats
# Experimental Context: Sprague-Dawley, rat, plasma, iv, 100 mg/kg, plasma, 5-FU 100 mg/kg i.v., whole pelvic irradiation 2 Gy with solvent and MMP-8 inhibitor (10 mg/kg, 2 h before irradiation)
Property Name: Cmax (µg/mL)

O=c1[nH]cc(F)c(=O)[nH]1 [5-FU, 5-fluorouracil] = 122

* * *

# Assay Details: Plasma pharmacokinetics of 5-FU in rats with or without MMP-8 inhibitor before whole pelvic irradiation 2 Gy
# Assay type: in vivo, Sprague-Dawley rats
# Experimental Context: Sprague-Dawley, rat, plasma, iv, 100 mg/kg, plasma, 5-FU 100 mg/kg i.v., controls without solvent, read-out: Vss
Property Name: Vd (L/kg)

O=c1[nH]cc(F)c(=O)[nH]1 [5-FU, 5-fluorouracil] = 0.859

* * *

# Assay Details: Plasma pharmacokinetics of 5-FU in rats with or without MMP-8 inhibitor before whole pelvic irradiation 2 Gy
# Type: in vivo, Sprague-Dawley rats
# Experimental Context: Sprague-Dawley, rat, plasma, iv, 100 mg/kg, 5-FU 100 mg/kg i.v., controls with solvent
Property Name: MRT (min)

O=c1[nH]cc(F)c(=O)[nH]1 = 36

* * *

# Assay Details: Bile pharmacokinetics of 5-FU in rats after whole pelvic irradiation
# Format: in vivo, Sprague-Dawley rats
# Experimental Context: Sprague-Dawley, rat, iv, 100 mg/kg, 5-FU 100 mg/kg i.v., controls 0 Gy
Property Name: MRT (min)

O=c1[nH]cc(F)c(=O)[nH]1 = 8.9

* * *

# Assay Details: Plasma pharmacokinetics of 5-FU in rats with or without MMP-8 inhibitor before whole pelvic irradiation 2 Gy
# Assay type: in vivo, Sprague-Dawley rats
# Experimental Context: Sprague-Dawley, rat, plasma, iv, 100 mg/kg, plasma, 5-FU 100 mg/kg i.v., controls with solvent, read-out: Vss
Property Name: Vd (L/kg)

O=c1[nH]cc(F)c(=O)[nH]1 = 0.836

* * *

# Assay Details: Plasma pharmacokinetics of 5-FU in rats after whole pelvic irradiation
# Assay type: in vivo, Sprague-Dawley rats
# Experimental Context: Sprague-Dawley, rat, iv, 100 mg/kg, 5-FU 100 mg/kg i.v., whole pelvic irradiation 2 Gy
Property Name: half-life (min)

O=c1[nH]cc(F)c(=O)[nH]1 = 29.9
